System: IgE antibodies from patients
Experiment: Wheat epitope mapping (2): overlapping 10-amino-acid peptide fragments shifted by one amino acid
Type: binding, human
Conditions: serum of patient P22 (WDEIA)
attribute_measured: epitope sequence binding to IgE antibody, rank (Key/Preferably/More preferably)

1806 (ELEALPK; REGION 1..7: note = epitope) [compound 1806] | Key
1807 (PKFLKNG; REGION 1..7: note = epitope) [compound 1807] | Key
1946 (FPGQ; REGION 1..4: note = epitope) [compound 1946] | Key

----------
Test system: IgE antibodies from patients
Experiment: Wheat epitope mapping (2): overlapping 10-amino-acid peptide fragments shifted by one amino acid
Format: binding, human
Conditions: serum of patient P21 (WDEIA)
attribute_measured: epitope sequence binding to IgE antibody, rank (Key/Preferably/More preferably)

1939 (QVPLVQQ; REGION 1..7: note = epitope) [compound 1939] | Preferably
1940 (VPLVQ; REGION 1..5: note = epitope) [compound 1940] | Key
1942 (QQFPGQQ; REGION 1..7: note = epitope) [compound 1942] | Preferably
1943 (QFPGQQ; REGION 1..6: note = epitope) [compound 1943] | Key

----------
System: IgE antibodies from patients
Assay: Wheat epitope mapping (2): overlapping 10-amino-acid peptide fragments shifted by one amino acid;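 as to Rank of partial sequence as epitope binding to IgE antibody: key = sequence deemed particularly important within the common 15-residue sequence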
Assay type: binding, human
Settings: serum of patient P10 (WDEIA); sequence without X
attribute_measured: Rank of partial sequence as epitope binding to IgE antibody

1524 (QVPLVQQQQ; REGION 1..9: note = epitope) [compound 1524] | More preferably
1605 (AQLEAIRS; REGION 1..8: note = epitope) [compound 1605] | More preferably
1526 (VQQQ; REGION 1..4: note = epitope) [compound 1526] | Key

----------
System: IgE antibodies from patients
Test: Wheat epitope mapping (2): overlapping 10-amino-acid peptide fragments shifted by one amino acid;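 as to epitope sequence binding to IgE antibody, rank (Key/Preferably/More preferably): key of grades: preferably = shorter partial sequence still acting as epitope; more preferably = sequence improving IgE binding; key = particularly important sequence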
Assay type: binding, human
Conditions: serum of patient P35 (WDEIA)
attribute_measured: epitope sequence binding to IgE antibody, rank (Key/Preferably/More preferably)

Previously resolved entries follow.
1715 (KEAA; REGION 1..4: note = epitope) [compound 1715] | Key
1768 (VSSYLKK; REGION 1..7: note = epitope) [compound 1768] | Key
1885 (RTLQ; REGION 1..4: note = epitope) [compound 1885] | Key
1884 (TVRTLQRT; REGION 1..8: note = epitope) [compound 1884] | Preferably
1769 (KVGYNP; REGION 1..6: note = epitope) [compound 1769] | Key

**Q:** Answer with the recorded epitope sequence binding to IgE antibody, rank (Key/Preferably/More preferably) of 1716 (SQVIIM; REGION 1..6: note = epitope) [compound 1716] only.
**A:** Key

**Q:** Answer with the recorded epitope sequence binding to IgE antibody, rank (Key/Preferably/More preferably) of 1822 (SGKELEALPK; REGION 1..10: note = epitope) [compound 1822] only.
**A:** Key

**Q:** Answer with the recorded epitope sequence binding to IgE antibody, rank (Key/Preferably/More preferably) of 1714 (KEAANF; REGION 1..6: note = epitope) [compound 1714] only.
**A:** Preferably

**Q:** Answer with the recorded epitope sequence binding to IgE antibody, rank (Key/Preferably/More preferably) of 1823 (LPKFL; REGION 1..5: note = epitope) [compound 1823] only.
**A:** Key

----------
System: IgE antibodies from patients
Assay: Wheat epitope mapping (2): overlapping 10-amino-acid peptide fragments shifted by one amino acid;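 as to epitope sequence binding to IgE antibody, rank (Key/Preferably/More preferably): key of grades: preferably = shorter partial sequence still acting as epitope; more preferably = sequence improving IgE binding; key = particularly important sequence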
Type: binding, human
Conditions: serum of patient P3 (WDEIA)
attribute_measured: epitope sequence binding to IgE antibody, rank (Key/Preferably/More preferably)

Previously resolved entries follow.
1838 (RTLQ; REGION 1..4: note = epitope) [compound 1838] | Key
1901 (VPLVQ; REGION 1..5: note = epitope) [compound 1901] | Key
1837 (VRTLQRT; REGION 1..7: note = epitope) [compound 1837] | Preferably
1790 (SGKELE; REGION 1..6: note = epitope) [compound 1790] | Key
1902 (QQFPGQQ; REGION 1..7: note = epitope) [compound 1902] | Key

**Q:** Answer with the recorded epitope sequence binding to IgE antibody, rank (Key/Preferably/More preferably) of 1791 (PKFL; REGION 1..4: note = epitope) [compound 1791] only.
**A:** Key

**Q:** Answer with the recorded epitope sequence binding to IgE antibody, rank (Key/Preferably/More preferably) of 1900 (QVPLVQQ; REGION 1..7: note = epitope) [compound 1900] only.
**A:** Preferably

----------
Tested on: IgE antibodies from patients
Test: Wheat epitope mapping (2): overlapping 10-amino-acid peptide fragments shifted by one amino acid;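 as to Rank of partial sequence as epitope binding to IgE antibody: key = sequence deemed particularly important within the common 15-residue sequence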
Format: binding, human
Settings: serum of patient P24 (WDEIA); sequence without X
attribute_measured: Rank of partial sequence as epitope binding to IgE antibody

Previously resolved entries follow.
1621 (YNPD; REGION 1..4: note = epitope) [compound 1621] | Key
1464 (QQPISQQQA; REGION 1..9: note = epitope) [compound 1464] | More preferably
1460 (LQPQQPISQ; REGION 1..9: note = epitope) [compound 1460] | More preferably
1459 (YLQPQQPISQ; REGION 1..10: note = epitope) [compound 1459] | Further preferably

Lab note: next substance to report on.
**Q:** Answer with the recorded Rank of partial sequence as epitope binding to IgE antibody of 1463 (QQPISQQQAQ; REGION 1..10: note = epitope) [compound 1463] only.
**A:** Further preferably

----------
Tested on: IgE antibodies from patients
Assay: Wheat epitope mapping (2): overlapping 10-amino-acid peptide fragments shifted by one amino acid;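 as to epitope sequence binding to IgE antibody, rank (Key/Preferably/More preferably): key of grades: preferably = shorter partial sequence still acting as epitope; more preferably = sequence improving IgE binding; key = particularly important sequence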
Format: binding, human
Conditions: serum of patient P33 (WDEIA)
attribute_measured: epitope sequence binding to IgE antibody, rank (Key/Preferably/More preferably)

1819 (SGKELEALPK; REGION 1..10: note = epitope) [compound 1819] | Key
1820 (PKFLK; REGION 1..5: note = epitope) [compound 1820] | Key
1767 (KKVGYNP; REGION 1..7: note = epitope) [compound 1767] | Key
1966 (QFPGQQ; REGION 1..6: note = epitope) [compound 1966] | Key
1880 (TVRTLQRT; REGION 1..8: note = epitope) [compound 1880] | Preferably
1965 (QQFPGQQ; REGION 1..7: note = epitope) [compound 1965] | Preferably

Lab note: next substance to report on.
**Q:** Answer with the recorded epitope sequence binding to IgE antibody, rank (Key/Preferably/More preferably) of 1881 (TVRTLQR; REGION 1..7: note = epitope) [compound 1881] only.
**A:** Key

----------
Tested on: IgE antibodies from patients
Experiment: Wheat epitope mapping (2): overlapping 10-amino-acid peptide fragments shifted by one amino acid;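 as to epitope sequence binding to IgE antibody, rank (Key/Preferably/More preferably): key of grades: preferably = shorter partial sequence still acting as epitope; more preferably = sequence improving IgE binding; key = particularly important sequence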
Assay type: binding, human
Settings: serum of patient P29 (WDEIA)
attribute_measured: epitope sequence binding to IgE antibody, rank (Key/Preferably/More preferably)

1871 (VRTLQR; REGION 1..6: note = epitope) [compound 1871] | Key
1815 (PKFLK; REGION 1..5: note = epitope) [compound 1815] | Key

----------
System: IgE antibodies from patients
Assay: Wheat epitope mapping (2): overlapping 10-amino-acid peptide fragments shifted by one amino acid;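 as to Rank of partial sequence as epitope binding to IgE antibody: key = sequence deemed particularly important within the common 15-residue sequence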
Type: binding, human
Conditions: serum of patient P17 (WDEIA); sequence without X
attribute_measured: Rank of partial sequence as epitope binding to IgE antibody

1615 (YNPD; REGION 1..4: note = epitope) [compound 1615] | Key
1616 (FVPISG; REGION 1..6: note = epitope) [compound 1616] | Key

----------
System: IgE antibodies from patients
Assay: Wheat epitope mapping (2): overlapping 10-amino-acid peptide fragments shifted by one amino acid
Assay type: binding, human
Conditions: serum of patient P26 (WDEIA); partial sequence
Protocol: The peptides to be synthesized were shifted by one amino acid. The library was prepared by the same procedure as described above in (A), and the presence or absence of binding of an IgE antibody present in the serum of a patient to each peptide fragment was measured by the same technique as described above. […]
attribute_measured: Epitope sequence binding to IgE antibody, rank of the sequence

2567 (QLVQQ; REGION 1..5: note = epitope) [compound 2567] | Key
2723 (KIGG; REGION 1..4: note = epitope) [compound 2723] | Key
2647 (KEAAEM; REGION 1..6: note = epitope) [compound 2647] | Key
2648 (NKRSFK; REGION 1..6: note = epitope) [compound 2648] | Key
2684 (YKGPTL; REGION 1..6: note = epitope) [compound 2684] | Key

Lab note: next substance to report on.
**Q:** Answer with the recorded Epitope sequence binding to IgE antibody, rank of the sequence of 2724 (GIGTVPVGRV; REGION 1..10: note = epitope) [compound 2724] only.
**A:** Key
